Target: HIV-1 ADA Env (pseudovirus) (HIV-1 ADA)
Assay: cell-based or functional assay
property.measured: IC50 (ug/ml), neutralization (µg/mL)
Please respond with the number in µg/mL and leave the unit unwritten.

Entry 1456_A12 (PG16) (TCN-117) (antibody, V domains shown) VH: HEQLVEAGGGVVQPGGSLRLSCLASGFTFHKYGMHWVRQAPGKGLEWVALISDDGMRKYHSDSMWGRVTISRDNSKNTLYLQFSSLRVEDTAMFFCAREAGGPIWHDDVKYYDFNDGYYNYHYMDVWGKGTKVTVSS VL: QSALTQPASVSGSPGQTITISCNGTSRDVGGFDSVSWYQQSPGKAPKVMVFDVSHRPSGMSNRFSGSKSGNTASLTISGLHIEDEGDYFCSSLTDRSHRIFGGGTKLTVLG , IC50 (ug/ml), neutralization reported as 0.005

Summary for this binder, 1503_H05 (PG16) (TCN-119) (antibody, V domains shown) VH: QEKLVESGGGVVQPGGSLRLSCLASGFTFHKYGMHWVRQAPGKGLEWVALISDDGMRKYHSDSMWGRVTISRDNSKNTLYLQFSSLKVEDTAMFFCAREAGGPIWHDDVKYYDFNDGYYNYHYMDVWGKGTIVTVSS VL: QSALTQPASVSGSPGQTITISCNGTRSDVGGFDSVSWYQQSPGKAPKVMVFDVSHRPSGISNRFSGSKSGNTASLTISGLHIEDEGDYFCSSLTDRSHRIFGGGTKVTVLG : IC50 (ug/ml), neutralization is 0.003

Record 1469_M23 (PG16) (TCN-118) (antibody, V domains shown) VH: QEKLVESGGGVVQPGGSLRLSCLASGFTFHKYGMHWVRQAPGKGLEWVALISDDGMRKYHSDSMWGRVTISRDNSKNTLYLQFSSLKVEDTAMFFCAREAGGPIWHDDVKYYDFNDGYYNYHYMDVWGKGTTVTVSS VL: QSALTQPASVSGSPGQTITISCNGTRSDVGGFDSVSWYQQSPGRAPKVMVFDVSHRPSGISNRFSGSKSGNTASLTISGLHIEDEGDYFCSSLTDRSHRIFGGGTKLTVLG , field IC50 (ug/ml), neutralization: 0.005

Data point: 1489_I13 (PG16) (TCN-120) (antibody, V domains shown) VH: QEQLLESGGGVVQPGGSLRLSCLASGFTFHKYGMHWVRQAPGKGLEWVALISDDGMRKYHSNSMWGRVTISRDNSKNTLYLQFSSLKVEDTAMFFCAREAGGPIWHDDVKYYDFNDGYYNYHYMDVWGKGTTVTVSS VL: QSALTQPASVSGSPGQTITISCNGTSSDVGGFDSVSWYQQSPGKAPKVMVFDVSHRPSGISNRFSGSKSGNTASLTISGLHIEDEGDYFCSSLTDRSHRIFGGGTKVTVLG ; IC50 (ug/ml), neutralization = 0.008
